Molecular target: THR-β (Homo sapiens, UniProt P10828)
Sequence (P10828 1-461): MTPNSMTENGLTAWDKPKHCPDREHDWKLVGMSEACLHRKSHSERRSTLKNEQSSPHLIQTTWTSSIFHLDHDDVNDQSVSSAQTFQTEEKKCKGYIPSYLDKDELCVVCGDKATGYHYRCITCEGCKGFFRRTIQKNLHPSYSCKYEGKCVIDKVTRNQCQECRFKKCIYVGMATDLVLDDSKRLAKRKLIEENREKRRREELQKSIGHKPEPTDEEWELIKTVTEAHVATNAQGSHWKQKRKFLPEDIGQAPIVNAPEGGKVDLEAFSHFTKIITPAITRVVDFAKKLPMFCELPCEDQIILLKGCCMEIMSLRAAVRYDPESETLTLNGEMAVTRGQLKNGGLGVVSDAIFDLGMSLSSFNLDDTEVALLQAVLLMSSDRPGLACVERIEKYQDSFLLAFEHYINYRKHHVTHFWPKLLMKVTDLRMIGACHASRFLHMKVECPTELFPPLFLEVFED
metric name: IC50 (nM)
# number only, unit nM dropped from output

Ask: Using the record for O=c1cnn(-c2cc(Cl)c(Oc3n[nH]c(=O)c4ccccc34)c(Cl)c2)c(=O)[nH]1 [Compound 11] , report its IC50.
Reply: 262

Ask: Which measured IC50 value corresponds to N#Cc1nn(-c2cc(Cl)c(Oc3n[nH]c(=O)c4ccccc34)c(Cl)c2)c(=O)[nH]c1=O [Compound 2] ?
Reply: 170

Ask: Request the reported IC50 associated with N#Cc1nn(-c2cc(Cl)c(Oc3n[nH]c(=O)c4c3CCCC4)c(Cl)c2)c(=O)[nH]c1=O [Compound 3]
Reply: 1230

Ask: Report IC50 for N#Cc1nn(-c2cc(Cl)c(Oc3n[nH]c(=O)c4c(Cl)cccc34)c(Cl)c2)c(=O)[nH]c1=O [Compound 7] please.
Reply: 1470

Just for reference, patent US20230241071A1 is where these values come from.
